Below, each entry is listed with its recorded Ki.
molecular target: urokinase (Homo sapiens); experiment: Amidolytic activity of urokinase, substrate S-2444; type: biochemical; conditions: Ki calculated from IC50 by Cheng-Prusoff; triplicate; n.i. = no effect at maximum concentration 20 mM; read-out: Ki ± SD Urokinase S-2444
Where a SMILES comes first, the peptide text is derived from it. [ ]: non-standard residue; d: D form. The star is where a group is joined. Nva = CCC[C@H](N)C(=O)O; Ms = CS(=O)(=O)*

Examples with answers:
{"columns": ["compound", "parameter measured", "endpoint result"],
 "data": [
  ["CCC[C@H](NC(=O)[C@@H](CO)NS(=O)(=O)Cc1ccccc1)C(=O)N[C@@H](CCCNC(=N)N)C(=O)O", "Ki", "> 20 mM"],
  ["N=C(N)NCCC[C@H](NC(=O)CNC(=O)[C@H](N)CO)C(=O)NCCCCCN", "Ki", "> 20 mM"],
  ["C[C@H](NC(=O)[C@@H](CO)NS(=O)(=O)Cc1ccccc1)C(=O)N[C@@H](CCCNC(=N)N)C(=O)NCCCCCN", "Ki", "> 20 mM"],
  ["CC(C)c1cc(C(C)C)c(S(=O)(=O)N[C@H](CO)C(=O)NCC(=O)N[C@@H](CCCNC(=N)N)C(=O)O)c(C(C)C)c1", "Ki", "0.0158 mM"],
  ["CCC[C@H](NC(=O)[C@@H](CO)NS(=O)(=O)c1c(C(C)C)cc(C(C)C)cc1C(C)C)C(=O)N[C@@H](CCCNC(=N)N)C(=O)NCCCCCN", "Ki", "> 20 mM"],
  ["CC(C)c1cc(C(C)C)c(S(=O)(=O)N[C@H](CO)C(=O)N[C@@H](C)C(=O)N[C@@H](CCCNC(=N)N)C(=O)NCCCCCN)c(C(C)C)c1", "Ki", "> 20 mM"],
  ["CCC[C@H](NC(=O)[C@@H](CO)NS(C)(=O)=O)C(=O)N[C@@H](CCCNC(=N)N)C(=O)O [Compound 15, CH3PhSO2-D-Ser-NVa-Arg-OH] (Ms-[dS]-[Nva]-Arg-OH; N-terminus and C-terminus assumed)", "Ki", "> 20 mM"],
  ["N=C(N)NCCC[C@H](NC(=O)CNC(=O)[C@@H](CO)NS(=O)(=O)Cc1ccccc1)C(=O)NCCCCCN", "Ki", "> 20 mM"]
]}

Task item: Ki for N=C(N)NCCC[C@H](NC(=O)CNC(=O)[C@@H](CO)NS(=O)(=O)Cc1ccccc1)C(=O)O ?
Reply: 0.0054 mM

Task item: Ki for CS(=O)(=O)N[C@H](CO)C(=O)NCC(=O)N[C@@H](CCCNC(=N)N)C(=O)O [Compound 12, CH3PhSO2-D-Ser-Gly-Arg-OH] (Ms-[dS]-Gly-Arg-OH; N-terminus and C-terminus assumed) ?
Reply: 0.0112 mM

Task item: Ki for CC(C)c1cc(C(C)C)c(S(=O)(=O)N[C@H](CO)C(=O)NCC(=O)N[C@@H](CCCNC(=N)N)C(=O)NCCCCCN)c(C(C)C)c1 ?
Reply: 0.0446 mM

Task item: Ki for CCC[C@H](NC(=O)[C@H](N)CO)C(=O)N[C@@H](CCCNC(=N)N)C(=O)NCCCCCN ?
Reply: > 20 mM

Task item: Ki for CCC[C@H](NC(=O)[C@@H](CO)NS(=O)(=O)Cc1ccccc1)C(=O)N[C@@H](CCCNC(=N)N)C(=O)NCCCCCN ?
Reply: > 20 mM
